// provenance: ChEMBL document CHEMBL3885881

organism: Rattus norvegicus; experiment: DrugMatrix - Regimen: Daily Repeat; type: toxicity, organism-based, Sprague-Dawley; design: regimen Daily Repeat, gender Male, age 6-8 weeks; details: in vivo, iv, 0 mg/kg, 72 h, tissue Plasma, dose level Control, time 3 day, vehicle 100 % SALINE
Starred links: 1 amine or outer side, 2 acyl side, 3 side chain; linkers in the order of their positions; H or OH if unused. Positions of bridges follow the written chain, without caps; N, C: chain ends. Non-standard residues stand in square brackets, D forms with d. Residues, ends and D or L forms follow the SMILES beside them. Chains are numbered I, II in the order given. Actinocin(9to1) = Cc1c2oc3c(C)ccc(C(=O)[*:1])c3nc-2c(C(=O)[*:2])c(N)c1=O; NMeV = CN[C@H](C(=O)O)C(C)C; Sar = CNCC(=O)O
Readings of GLUCOSE for the listed compounds
recorded endpoint: GLUCOSE (mg/dL)

>>> value("Cc1ccc(N(CC2=NCCN2)c2cccc(O)c2)cc1")
172.17
>>> value("COc1cc2c3cc1Oc1cc(ccc1O)C[C@@H]1c4c(cc(OC)c(O)c4Oc4ccc(cc4)C[C@@H]3N(C)CC2)CC[N+]1(C)C.[Cl-]")
152.83
>>> value("CC[C@]1(O)C[C@H]2CN(CCc3c([nH]c4ccccc34)[C@@](C(=O)OC)(c3cc4c(cc3OC)N(C=O)[C@H]3[C@@](O)(C(=O)OC)[C@H](OC(C)=O)[C@]5(CC)C=CCN6CC[C@]43[C@@H]65)C2)C1")
149.17
>>> value("Cc1c2oc3c(C)ccc(C(=O)N[C@@H]4C(=O)N[C@H](C(C)C)C(=O)N5CCC[C@H]5C(=O)N(C)CC(=O)N(C)[C@@H](C(C)C)C(=O)O[C@@H]4C)c3nc-2c(C(=O)N[C@@H]2C(=O)N[C@H](C(C)C)C(=O)N3CCC[C@H]3C(=O)N(C)CC(=O)N(C)[C@@H](C(C)C)C(=O)O[C@@H]2C)c(N)c1=O [DACTINOMYCIN] (I: T[dV]P[Sar][NMeV] / II: T[dV]P[Sar][NMeV]; ester I:1-I:C, II:1-II:C; linker I:N-II:N via Actinocin(9to1))")
163
